Data origin, for the record: a melting point compilation (Tetko et al.; mined from patent text by program, amines drawn as free bases though some values may be those of a salt)

Quick reference for melting point among some compounds

Take a look at these entries with their results.
Cc1ccc(-c2ccccc2C(=O)NCc2ccc([N+](=O)[O-])cc2)cc1 | 153 to 154 °C
CCCCCCc1c(CCCC)nc2ncnn2c1N | 134 to 136 °C
Cc1c(-c2ccccc2)oc2c(CCl)cccc2c1=O | 112 to 113 °C

Now for another entry.
Indicate the recorded melting point value for this compound: CC(C)n1nc(-c2c(OCC(=O)N(C)C)nc(N)nc2-c2ccccc2)ccc1=O 133 to 136 °C

###

value_type: melting point

Take a look at these entries with their results.
N#Cc1ccc(-c2ccc(I)cc2)cc1 | 162 to 168 °C
COc1cc2c(Nc3ccc(Cl)cc3F)ncnc2cc1OCc1ccnc(C)c1 | 221 to 224 °C
COc1cc2c(Nc3cc(OC)c(OC)c(OC)c3)c(C#N)cnc2cc1/C=C/CCO | 184 to 185 °C
NC(=O)N1C(=O)C(C(=O)c2cccs2)c2ccncc21 (stereo not given) | 213 to 215 °C
COC(OC)C1CN=C(c2cc3sc(C)c(N(C)S(=O)(=O)c4cccs4)c3[nH]2)S1 (stereo not given) | 185 °C
O=Cc1cccn2cc(-c3ccccc3)nc12 | 96 to 99 °C
CC(C)NS(=O)(=O)c1sccc1-c1cccc2cc(-c3ncc(CCl)s3)[nH]c12 | 184 to 185 °C
CCOC(=O)c1c[nH]c2cnc3cc(F)c(F)cc3c2c1=O | 300 °C
O=C(Nc1cccc(-c2ccnc3c(C(=O)c4cccs4)cnn23)c1)c1cnc[nH]1 | 280 to 282 °C

Now for another entry.
Indicate the recorded melting point value for this compound: O=C(O)C1Cc2ccccc2N1C(=O)CCS (stereo not given) 140 to 142 °C
